Provenance of the data: paper PMC9130146

# target_under_test: WT1 ZF2-4 p.His450Arg (Homo sapiens (cDNA from A549 cells), UniProt P19544-2 334-423, H360R)
# Sequence (P19544 other isoform, or with tags, fused parts or gaps H360R | p.H450R p.H450R): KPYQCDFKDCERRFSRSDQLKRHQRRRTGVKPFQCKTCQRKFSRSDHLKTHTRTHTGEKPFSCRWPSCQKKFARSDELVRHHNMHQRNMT
# method: MST; 50 mM Na2HPO4.12H2O, 150 mM NaCl, 0.005% Tween; pH not stated; room temperature; 80 nM DNA; protein from 1-4 mM (highest) downward
# conditions_used: protein: recombinant; tags: no tag stated; label: 5' Cyanine5; single strand
measured_parameter: Kd (µM)
Give just the number in µM; leave the unit off.

Fill in: Kd of GTGGAGGCGGCGGGGGCGGCAGCAACAG (ssDNA) [EGR1 DNA motif, Cy5 oligo] is ___
878
